- Assay Target: recombinant human MASP2 active protease (amino acids 297-686, C-terminal His Tag) (human, UniProt O00187 297-686)
- Sequence (O00187 other isoform, or with tags, fused parts or gaps limits assumed): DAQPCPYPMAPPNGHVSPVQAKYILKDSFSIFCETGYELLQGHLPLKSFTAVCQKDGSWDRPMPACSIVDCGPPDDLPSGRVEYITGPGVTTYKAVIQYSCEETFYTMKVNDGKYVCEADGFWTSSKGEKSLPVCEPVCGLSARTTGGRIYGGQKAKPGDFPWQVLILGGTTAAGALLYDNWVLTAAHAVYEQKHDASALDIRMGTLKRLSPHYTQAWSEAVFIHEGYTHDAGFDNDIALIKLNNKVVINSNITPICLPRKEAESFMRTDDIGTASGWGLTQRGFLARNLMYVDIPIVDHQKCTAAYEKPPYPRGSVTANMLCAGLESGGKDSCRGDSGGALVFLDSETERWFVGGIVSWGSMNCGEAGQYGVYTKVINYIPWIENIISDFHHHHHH
- Protocol Description: cell-based or functional assay
Bridge positions count the residues as written; N and C are the ends. Square brackets hold non-standard residues; d marks the D form. Ends that are not written are not given here. Oic = O=C(O)[C@@H]1C[C@@H]2CCCC[C@@H]2N1; tBuAla = CC(C)(C)C[C@H](N)C(=O)O; Pen = CC(C)(S)[C@H](N)C(=O)O; NMeC = CN[C@@H](CS)C(=O)O; Orn = NCCC[C@H](N)C(=O)O; PEG2 = NCCOCCOCCC(=O)O; Sar = CNCC(=O)O
Measured Parameter: human MASP2 IC50 (nM)
Numeric answer only, unit nM assumed.

# Binder, Value Observed
measured = [
    ("[Sar]ICSRSLP[Oic]I[Pen]IPD[PEG2]-NH2 (disulfide 3-11; N-terminus assumed; SMILES CC[C@H](C)[C@H](NC(=O)CNC)C(=O)N[C@H]1CSSC(C)(C)[C@@H](C(=O)N[C@H](C(=O)N2CCC[C@H]2C(=O)N[C@@H](CC(=O)O)C(=O)NCCOCCOCCC(N)=O)[C@@H](C)CC)NC(=O)[C@H]([C@@H](C)CC)NC(=O)[C@@H]2C[C@@H]3CCCC[C@@H]3N2C(=O)[C@@H]2CCCN2C(=O)[C@H](CC(C)C)NC(=O)[C@H](CO)NC(=O)[C@H](CCCNC(=N)N)NC(=O)[C@H](CO)NC1=O) [((N-Me)G)-IC+SRSLP-(Oic)-I-(Pen)+IPD-(PEG1(10 atoms))-NH2]", 68),
]

Asked: Return human MASP2 IC50 (reported value) for this binder: [Orn]ICSRS[tBuAla]PPI[NMeC]I-NH2 (disulfide 3-11; N-terminus assumed; SMILES CC[C@H](C)[C@H](NC(=O)[C@@H]1CSSC[C@H](NC(=O)[C@@H](NC(=O)[C@@H](N)CCCN)[C@@H](C)CC)C(=O)N[C@@H](CO)C(=O)N[C@@H](CCCNC(=N)N)C(=O)N[C@@H](CO)C(=O)N[C@@H](CC(C)(C)C)C(=O)N2CCC[C@H]2C(=O)N2CCC[C@H]2C(=O)N[C@@H]([C@@H](C)CC)C(=O)N1C)C(N)=O) [(Orn)-IC+SRS-((tBu)A)-PPI-((N-Me)C)+I-NH2]
Given back: 130
